Data origin: patent US10973784B2

assay: Pharmacokinetic analysis of SYN120 tablets, multiple dose once daily (Example 9); assay type: in vivo, human; conditions: both sexes, human, plasma, oral, Day 14, across dose groups; read-out: median Tmax
QUANTITY_KIND: Tmax

Please report Tmax for the following compound: NC(=O)NC[C@@H]1CCCc2cc(S(=O)(=O)c3cccc(F)c3)ccc21 [SYN120] 3 to 3.51 h

----------
assay: Pharmacokinetic analysis of SYN120 tablets, multiple dose once daily (Example 9); assay type: in vivo, human; details: both sexes, human, plasma, oral, 300 mg, Day 1, 300 mg QD; geometric mean; read-out: AUC0-24
QUANTITY_KIND: AUC(0-t) (ng·h/mL)
Give the value in ng·h/mL but do not write ng·h/mL after it.

Please report AUC(0-t) for the following molecule: NC(=O)NC[C@@H]1CCCc2cc(S(=O)(=O)c3cccc(F)c3)ccc21 [SYN120] 29500

----------
test: Pharmacokinetic analysis of SYN120 tablets, single oral dose (Example 8); type: in vivo, human; details: male, human, plasma; single oral dose 100 mg (males), Cohort D; arithmetic mean ±SD; read-out: t1/2 (converted)
QUANTITY_KIND: half-life (min)
Give the value in min but do not write min after it.

Please report half-life for the following compound: NC(=O)NC[C@@H]1CCCc2cc(S(=O)(=O)c3cccc(F)c3)ccc21 [SYN120] 660

----------
Assay: Pharmacokinetic analysis of SYN120 tablets, multiple dose once daily (Example 9)
Format: in vivo, human
Details: both sexes, human, plasma, oral; Day 14, 600 mg QD; arithmetic mean, n = 7
Procedure: PK analysis in a multiple dose study was performed on 28 subjects (10 males and 18 females) on day 1 and on 27 subjects (10 males and 17 females) on day 14 who received SYN120 oral tablets. The dosing interval was once daily, approximately 40 minutes after a standard breakfast, for up to 21 days. The subjects were administered the same dose of SYN120 daily at one of the following doses: 100 mg; 300 mg; and 600 mg. […]
QUANTITY_KIND: half-life (h)
Give the value in h but do not write h after it.

Please report half-life for the following molecule: NC(=O)NC[C@@H]1CCCc2cc(S(=O)(=O)c3cccc(F)c3)ccc21 [SYN120] 15

----------
assay: Pharmacokinetic analysis of SYN120 tablets, multiple dose once daily (Example 9); format: in vivo, human; settings: both sexes, human, plasma, oral, 600 mg, Day 1, 600 mg QD; geometric mean; read-out: AUC0-last
QUANTITY_KIND: AUC(0-t)
Note: state the figure and append the unit.

Please report AUC(0-t) for the following compound: NC(=O)NC[C@@H]1CCCc2cc(S(=O)(=O)c3cccc(F)c3)ccc21 [SYN120] 59600 ng·h/mL

----------
test: Pharmacokinetic analysis of SYN120 tablets, single oral dose (Example 8); type: in vivo, human; settings: human, plasma; single oral dose 2 mg, Cohort A; arithmetic mean ±SD; read-out: t1/2 (converted)
QUANTITY_KIND: half-life (h)
Give the value in h but do not write h after it.

Please report half-life for the following compound: NC(=O)NC[C@@H]1CCCc2cc(S(=O)(=O)c3cccc(F)c3)ccc21 [SYN120] 11.4

----------
assay: Pharmacokinetic analysis of SYN120 tablets, single oral dose (Example 8); format: in vivo, human; conditions: female, human, plasma, po, 100 mg, single oral dose 100 mg (females), Cohort E; geometric mean; read-out: AUC0-t
QUANTITY_KIND: AUC(0-t) (ng·h/mL)
Give the value in ng·h/mL but do not write ng·h/mL after it.

Please report AUC(0-t) for the following compound: NC(=O)NC[C@@H]1CCCc2cc(S(=O)(=O)c3cccc(F)c3)ccc21 [SYN120] 5100

----------
assay: Pharmacokinetic analysis of SYN120 tablets, single oral dose (Example 8); assay type: in vivo, human; settings: human, plasma, oral; single dose 2 to 30 mg, on average; read-out: Tmax
QUANTITY_KIND: Tmax

Please report Tmax for the following compound: NC(=O)NC[C@@H]1CCCc2cc(S(=O)(=O)c3cccc(F)c3)ccc21 [SYN120] ~2 h

----------
assay: Pharmacokinetic analysis of SYN120 tablets, multiple dose once daily (Example 9); type: in vivo, human; details: both sexes, human, plasma, oral, 100 mg, Day 1, 100 mg QD; geometric mean
QUANTITY_KIND: Cmax (ng/mL)
Give the value in ng/mL but do not write ng/mL after it.

Please report Cmax for the following compound: NC(=O)NC[C@@H]1CCCc2cc(S(=O)(=O)c3cccc(F)c3)ccc21 [SYN120] 813

----------
assay: Pharmacokinetic analysis of SYN120 tablets, single oral dose (Example 8); format: in vivo, human; conditions: female, human, plasma, po, 100 mg, single oral dose 100 mg (females), Cohort E; geometric mean; read-out: AUC0-24
QUANTITY_KIND: AUC(0-t) (µg·h/mL)
Give the value in µg·h/mL but do not write µg·h/mL after it.

Please report AUC(0-t) for the following molecule: NC(=O)NC[C@@H]1CCCc2cc(S(=O)(=O)c3cccc(F)c3)ccc21 [SYN120] 4

----------
test: Pharmacokinetic analysis of SYN120 tablets, single oral dose (Example 8); type: in vivo, human; details: human, plasma; single oral dose 30 mg, Cohort C; geometric mean
QUANTITY_KIND: Cmax (ng/mL)
Give the value in ng/mL but do not write ng/mL after it.

Please report Cmax for the following compound: NC(=O)NC[C@@H]1CCCc2cc(S(=O)(=O)c3cccc(F)c3)ccc21 [SYN120] 179

----------
experiment: Pharmacokinetic analysis of SYN120 tablets, multiple dose once daily (Example 9); format: in vivo, human; details: both sexes, human, plasma, oral, 300 mg, Day 1, 300 mg QD; geometric mean; read-out: AUC0-last
QUANTITY_KIND: AUC(0-t) (ng·h/mL)
Give the value in ng·h/mL but do not write ng·h/mL after it.

Please report AUC(0-t) for the following molecule: NC(=O)NC[C@@H]1CCCc2cc(S(=O)(=O)c3cccc(F)c3)ccc21 [SYN120] 29500

----------
test: Pharmacokinetic analysis of SYN120 tablets, single oral dose (Example 8); assay type: in vivo, human; conditions: human, plasma, po, 2 mg, single oral dose 2 mg, Cohort A; geometric mean; read-out: AUC0-24
QUANTITY_KIND: AUC(0-t) (ng·h/mL)
Give the value in ng·h/mL but do not write ng·h/mL after it.

Please report AUC(0-t) for the following compound: NC(=O)NC[C@@H]1CCCc2cc(S(=O)(=O)c3cccc(F)c3)ccc21 [SYN120] 118

----------
assay: Pharmacokinetic analysis of SYN120 tablets, multiple dose once daily (Example 9); assay type: in vivo, human; settings: both sexes, human, plasma, oral, 300 mg, Day 14, 300 mg QD; geometric mean; read-out: Css
QUANTITY_KIND: concentration at 14 day

Please report concentration at 14 day for the following compound: NC(=O)NC[C@@H]1CCCc2cc(S(=O)(=O)c3cccc(F)c3)ccc21 [SYN120] 1500 ng/mL

----------
Assay: Pharmacokinetic analysis of SYN120 tablets, single oral dose (Example 8)
Assay type: in vivo, human
Details: human, plasma; single oral dose 600 mg, Cohort G; geometric mean
Description: Pharmacokinetic (PK) analysis was performed on 42 subjects (36 males; 6 females) who received SYN120 oral tablets. In this study, subjects received a single oral dose of SYN120 at one of the following doses: 2 mg; 10 mg; 30 mg; 100 mg; 300 mg; and 600 mg. The SYN120 oral tablets used in this study were formulated for immediate release at tablet strengths of 2 mg, 10 mg, and 50 mg. […]
QUANTITY_KIND: Cmax

Please report Cmax for the following compound: NC(=O)NC[C@@H]1CCCc2cc(S(=O)(=O)c3cccc(F)c3)ccc21 [SYN120] 2080 ng/mL

----------
assay: Pharmacokinetic analysis of SYN120 tablets, multiple dose once daily (Example 9); format: in vivo, human; settings: both sexes, human, plasma, oral, 100 mg, Day 1, 100 mg QD; geometric mean; read-out: AUC0-24
QUANTITY_KIND: AUC(0-t)

Please report AUC(0-t) for the following compound: NC(=O)NC[C@@H]1CCCc2cc(S(=O)(=O)c3cccc(F)c3)ccc21 [SYN120] 7780 ng·h/mL

----------
assay: Pharmacokinetic analysis of SYN120 tablets, multiple dose once daily (Example 9); assay type: in vivo, human; settings: both sexes, human, plasma, oral; Day 14, 300 mg QD; arithmetic mean
QUANTITY_KIND: half-life

Please report half-life for the following compound: NC(=O)NC[C@@H]1CCCc2cc(S(=O)(=O)c3cccc(F)c3)ccc21 [SYN120] 15.5 h

----------
assay: Pharmacokinetic analysis of SYN120 tablets, multiple dose once daily (Example 9); format: in vivo, human; conditions: both sexes, human, plasma, oral, 600 mg, Day 14, 600 mg QD; geometric mean
QUANTITY_KIND: Cmax (ng/mL)
Give the value in ng/mL but do not write ng/mL after it.

Please report Cmax for the following compound: NC(=O)NC[C@@H]1CCCc2cc(S(=O)(=O)c3cccc(F)c3)ccc21 [SYN120] 5460
